# Test system: HCT116 colon cancer cells
# experimental.details: HCT116 cell viability and proliferation assay (MTS)
# Assay type: cell-based
# condition.parameters: Homo sapiens, HCT-116, 72 h, HCT116, 72 hours, read-out: Cell viability (MTS): HCT116 GI50 Day3
One threshold, 7 µM, splits the recorded GI50 values: lower ones are 1, equal or higher ones are -1.

1) CCCN1CCN(CCCNC(=O)c2ccc3c(Cl)c4c(nc3c2)CCCC4)CC1    1
2) CCN(CC)CCCC(C)NC(=O)c1ccc2c(Cl)c3c(nc2c1)CCCC3 (stereo not shown)    -1
3) CN(C)CC(C)(C)CNC(=O)c1ccc2c(Cl)c3c(nc2c1)CCCC3    -1
4) CCN(CC)CCNC(=O)c1ccc2c(Cl)c3c(nc2c1)CCCC3    1
5) CCCN(CCC)CCCNC(=O)c1ccc2c(Cl)c3c(nc2c1)CCCC3    1
6) O=C(NCc1cccc(CN2CCCC2)c1)c1ccc2c(Cl)c3c(nc2c1)CCCC3    1
7) CC1CCCCN1CCCNC(=O)c1ccc2c(Cl)c3c(nc2c1)CCCC3 (stereo not shown)    -1
8) CCN1CCC[C@H]1CNC(=O)c1ccc2c(Cl)c3c(nc2c1)CCCC3    -1
9) CCN1CCC[C@@H]1CNC(=O)c1ccc2c(Cl)c3c(nc2c1)CCCC3    -1
10) CCCN(CCC)CCNC(=O)c1ccc2c(Cl)c3c(nc2c1)CCCC3    1
11) COc1ccc(CN2CCC(CNC(=O)c3ccc4c(Cl)c5c(nc4c3)CCCC5)CC2)cc1    1
12) O=C(NCC1CCN(CCCc2ccccc2)CC1)c1ccc2c(Cl)c3c(nc2c1)CCCC3    1
13) CN1CCN(CCCNC(=O)c2ccc3c(Cl)c4c(nc3c2)CCCC4)CC1    -1
14) CC1CCCC(C)N1CCCNC(=O)c1ccc2c(Cl)c3c(nc2c1)CCCC3 (stereo not shown)    1
15) O=C(NCC1CCN(CCc2ccccc2)CC1)c1ccc2c(Cl)c3c(nc2c1)CCCC3    1
16) CN1CCC(N2CCN(C(=O)c3ccc4c(Cl)c5c(nc4c3)CCCC5)CC2)CC1    -1
17) O=C(Nc1cccc(CN2CCCC2)c1)c1ccc2c(Cl)c3c(nc2c1)CCCC3    1
18) O=C(NCC1CCNCC1)c1ccc2c(Cl)c3c(nc2c1)CCCC3    -1
19) O=C(c1ccc2c(Cl)c3c(nc2c1)CCCC3)N1CCC(N2CCCCC2)CC1    -1
20) CCCCN(CC)CCNC(=O)c1ccc2c(Cl)c3c(nc2c1)CCCC3    1
21) CN(C)CCNC(=O)c1ccc2c(Cl)c3c(nc2c1)CCCC3    -1
22) CCN1CCCC1CNC(=O)c1ccc2c(Cl)c3c(nc2c1)CCCC3 (stereo not shown)    1
23) O=C(NCCCN1CCCC1)c1ccc2c(Cl)c3c(nc2c1)CCCC3    1
24) CN(CCCNC(=O)c1ccc2c(Cl)c3c(nc2c1)CCCC3)Cc1ccccc1    1
25) CN1CCC(CN2CCN(C(=O)c3ccc4c(Cl)c5c(nc4c3)CCCC5)CC2)CC1    -1
26) CN(C)c1ccc(CN2CCC(CNC(=O)c3ccc4c(Cl)c5c(nc4c3)CCCC5)CC2)cc1    1
27) O=C(NCC1CCN(Cc2ccccc2)CC1)c1ccc2c(Cl)c3c(nc2c1)CCCC3    1
28) O=C(NCCCN1CCc2ccccc2C1)c1ccc2c(Cl)c3c(nc2c1)CCCC3    -1
29) O=C(NCCN1CCCCC1)c1ccc2c(Cl)c3c(nc2c1)CCCC3    -1
30) CCN(CCCNC(=O)c1ccc2c(Cl)c3c(nc2c1)CCCC3)Cc1ccccc1    1
